target_entity: His6-TEV-PDGFRβ (557-1016) (Homo sapiens (Human))
Sequence (P09619 whole entry, looked up): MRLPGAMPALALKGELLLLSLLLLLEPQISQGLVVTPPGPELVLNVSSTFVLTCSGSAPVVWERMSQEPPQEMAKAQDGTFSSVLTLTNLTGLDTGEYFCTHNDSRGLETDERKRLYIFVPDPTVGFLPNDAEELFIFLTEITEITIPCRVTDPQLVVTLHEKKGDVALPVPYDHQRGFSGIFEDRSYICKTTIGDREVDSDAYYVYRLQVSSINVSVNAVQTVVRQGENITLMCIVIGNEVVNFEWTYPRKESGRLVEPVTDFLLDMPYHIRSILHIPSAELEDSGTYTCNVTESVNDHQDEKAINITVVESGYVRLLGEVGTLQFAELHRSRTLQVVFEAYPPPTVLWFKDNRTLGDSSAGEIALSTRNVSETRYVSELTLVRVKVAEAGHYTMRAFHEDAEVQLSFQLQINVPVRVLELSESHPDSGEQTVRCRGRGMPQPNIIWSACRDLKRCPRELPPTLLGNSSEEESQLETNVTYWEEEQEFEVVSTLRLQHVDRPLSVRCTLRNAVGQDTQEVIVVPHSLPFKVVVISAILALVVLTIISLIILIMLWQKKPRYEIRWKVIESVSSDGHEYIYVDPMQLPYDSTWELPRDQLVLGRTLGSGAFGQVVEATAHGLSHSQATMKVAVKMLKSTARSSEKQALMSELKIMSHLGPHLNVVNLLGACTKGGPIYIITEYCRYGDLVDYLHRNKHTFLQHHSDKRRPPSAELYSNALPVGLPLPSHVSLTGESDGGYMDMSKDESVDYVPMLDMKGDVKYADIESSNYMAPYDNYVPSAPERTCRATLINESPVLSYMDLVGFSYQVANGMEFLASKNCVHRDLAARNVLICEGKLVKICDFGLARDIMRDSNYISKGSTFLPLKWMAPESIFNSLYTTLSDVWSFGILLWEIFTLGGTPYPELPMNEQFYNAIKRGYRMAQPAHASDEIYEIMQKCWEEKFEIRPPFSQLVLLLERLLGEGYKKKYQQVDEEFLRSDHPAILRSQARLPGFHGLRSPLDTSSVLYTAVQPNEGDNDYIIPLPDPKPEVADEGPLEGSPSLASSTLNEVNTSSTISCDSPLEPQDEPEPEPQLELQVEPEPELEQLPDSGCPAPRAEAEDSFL
method_description: PDGFRβ HTRF Assay
Assay type: biochemical
conditions: 800 μM ATP, 0.5 μM TK-substrate biotin peptide, 30 min pre-incubation, 3 hours reaction; read-out: PDGFR HTRF IC50
pIC50: −log10 of the molar value.
reported_property: pIC50

query_smiles	target_entity	recorded_number
COCCn1cc(Nc2ncc3c(Nc4cc(NC(=O)CN5CC(C)(C)C5)cnc4C)nn(C)c3n2)cn1	His6-TEV-PDGFRβ (557-1016) (Homo sapiens (Human))	9.48
COCCn1cc(Nc2ncc3c(Nc4cc(C(=O)NCCN5CCCC5(C)C)cnc4C)nn(C)c3n2)cn1	His6-TEV-PDGFRβ (557-1016) (Homo sapiens (Human))	9.13
Cc1ncc(C(=O)NCCN2CCCC23CCC3)cc1Nc1nn(C)c2nc(Nc3cnn(C)c3)ncc12	His6-TEV-PDGFRβ (557-1016) (Homo sapiens (Human))	9.54
COCCn1cc(Nc2ncc3c(Nc4cc(NC(=O)CN5CCC56CCC6)cnc4C)nn(C)c3n2)cn1	His6-TEV-PDGFRβ (557-1016) (Homo sapiens (Human))	9.43
COCCn1cc(Nc2ncc3c(Nc4cc(NC(=O)CN5CCCC56CCC6)cnc4C)nn(C)c3n2)cn1	His6-TEV-PDGFRβ (557-1016) (Homo sapiens (Human))	9.46
Cc1nn(C)cc1Nc1ncc2c(Nc3cc(C(=O)NCCN4CCCC4(C)C)cnc3C)nn(C)c2n1	His6-TEV-PDGFRβ (557-1016) (Homo sapiens (Human))	8.78
Cc1ncc(C(=O)NCCC2CCCCC2)cc1Nc1nn(C)c2nc(NCCC3CCCCC3)ncc12	His6-TEV-PDGFRβ (557-1016) (Homo sapiens (Human))	6.76

Source of measurements: patent US20240360134A1
